- System: Jurkat
- EXPERIMENTAL_PROTOCOL: Antiproliferative activity against human Jurkat cells assessed as inhibition of cell proliferation measured after 48 hrs by CCK8 assay
- Format: functional, cell-based
What GI50 was measured for each of the following?

[Q] Reported GI50 for Cc1ccccc1Nc1nc(Nc2ccc(N3CCN(C)CC3)cn2)ncc1Cl : what is it?
[A] 8.08 µM

[Q] Reported GI50 for Cc1ccccc1Nc1nc(Nc2cc(Cl)ccn2)ncc1Cl : what is it?
[A] 39.6 µM

[Q] Reported GI50 for CCN1CCN(Cc2ccc(Nc3ncc(F)c(-c4cc(F)c5nc(C)n(C(C)C)c5c4)n3)nc2)CC1 [ABEMACICLIB] : what is it?
[A] 4.63 µM

[Q] Reported GI50 for Cc1ccc(Nc2ncc(Cl)c(Nc3ccccc3C)n2)cc1 : what is it?
[A] > 100 µM

[Q] Reported GI50 for CN1CCN(c2ccc(Nc3ncc(Cl)c(NCc4ccc(C(F)(F)F)cc4)n3)nc2)CC1 : what is it?
[A] 7.96 µM

* * *

pIC50: −log10 of the molar value.
What pIC50 was measured for each of the following?

[Q] Hi! What's the reported pIC50 for COc1ccccc1CNc1nc(Nc2ccc(N3CCN(C)CC3)cn2)ncc1Cl on CDK6/cyclin D3 (Homo sapiens, UniProt Q00534)?
[A] < 5.00

[Q] Hi! What's the reported pIC50 for Cc1ccccc1Nc1nc(Nc2ccc(N3CCCCC3)cn2)ncc1Cl on CDK6/cyclin D3 (Homo sapiens, UniProt Q00534)?
[A] < 5.00

[Q] Hi! What's the reported pIC50 for CN1CCN(c2ccc(Nc3ncc(Cl)c(NCCc4ccc(F)cc4)n3)nc2)CC1 on CDK6/cyclin D3 (Homo sapiens, UniProt Q00534)?
[A] < 5.00

[Q] Hi! What's the reported pIC50 for COC[C@@H](C)N[C@H]1CC[C@H](Nc2cc(-c3cccc(NCC4(C#N)CCOCC4)n3)c(Cl)cn2)CC1 on CDK6/cyclin D3 (Homo sapiens, UniProt Q00534)?
[A] < 5.00

* * *

- SYSTEM_TESTED: CDK9/Cyclin K (Homo sapiens, UniProt P50750)
- Sequence (P50750 whole entry): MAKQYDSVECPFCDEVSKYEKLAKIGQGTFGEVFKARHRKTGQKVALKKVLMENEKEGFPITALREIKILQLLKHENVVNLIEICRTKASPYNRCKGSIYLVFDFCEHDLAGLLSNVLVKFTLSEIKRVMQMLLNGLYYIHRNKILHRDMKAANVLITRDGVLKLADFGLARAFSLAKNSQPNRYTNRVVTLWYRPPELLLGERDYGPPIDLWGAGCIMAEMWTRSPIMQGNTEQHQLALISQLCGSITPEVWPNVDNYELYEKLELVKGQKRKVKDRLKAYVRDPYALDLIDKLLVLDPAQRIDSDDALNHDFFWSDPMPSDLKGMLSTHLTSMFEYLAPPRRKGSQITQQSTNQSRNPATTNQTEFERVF
- Sequence (O75909 whole entry, further chain): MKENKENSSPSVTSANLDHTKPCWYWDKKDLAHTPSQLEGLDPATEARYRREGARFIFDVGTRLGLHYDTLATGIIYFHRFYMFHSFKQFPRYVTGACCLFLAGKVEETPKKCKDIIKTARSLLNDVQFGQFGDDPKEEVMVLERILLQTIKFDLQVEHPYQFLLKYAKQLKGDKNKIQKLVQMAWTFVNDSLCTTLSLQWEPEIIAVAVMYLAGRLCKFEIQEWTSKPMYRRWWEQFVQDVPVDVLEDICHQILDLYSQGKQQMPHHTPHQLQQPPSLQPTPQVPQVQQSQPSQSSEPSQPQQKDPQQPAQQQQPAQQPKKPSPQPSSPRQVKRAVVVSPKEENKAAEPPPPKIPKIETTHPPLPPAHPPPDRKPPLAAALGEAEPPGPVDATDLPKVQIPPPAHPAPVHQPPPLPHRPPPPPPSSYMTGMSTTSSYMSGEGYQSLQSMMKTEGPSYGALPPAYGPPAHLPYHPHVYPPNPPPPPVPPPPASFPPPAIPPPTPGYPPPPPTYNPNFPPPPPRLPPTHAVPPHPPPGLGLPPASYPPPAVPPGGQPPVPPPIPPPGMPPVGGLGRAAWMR
- EXPERIMENTAL_PROTOCOL: biochemical
What pIC50 was measured for each of the following?
Remember the convention: pIC50 equals -log10 of concentration in molar.

[Q] Hi! What's the reported pIC50 for CC(C)c1cccc(Nc2nc(Nc3ccc(N4CCN(C)CC4)cn3)ncc2Cl)c1 on CDK9/Cyclin K (Homo sapiens, UniProt P50750)?
[A] 6.18

[Q] Hi! What's the reported pIC50 for COc1cc(Nc2ncc(Cl)c(Nc3ccccc3C)n2)ccn1 on CDK9/Cyclin K (Homo sapiens, UniProt P50750)?
[A] 6.04

[Q] Hi! What's the reported pIC50 for COc1ccc(Nc2nc(Nc3ccc(N4CCN(C)CC4)cn3)ncc2Cl)cc1 on CDK9/Cyclin K (Homo sapiens, UniProt P50750)?
[A] 5.86

[Q] Hi! What's the reported pIC50 for Cc1ccc(Nc2nc(Nc3ccc(N4CCN(C)CC4)cn3)ncc2Cl)cc1 on CDK9/Cyclin K (Homo sapiens, UniProt P50750)?
[A] 5.84

[Q] Hi! What's the reported pIC50 for CCN1CCN(c2ccc(Nc3ncc(Cl)c(Nc4ccccc4C)n3)cc2)CC1 on CDK9/Cyclin K (Homo sapiens, UniProt P50750)?
[A] 6.12

Hey, just so you know, these numbers are from ChEMBL document CHEMBL4602695.
